# EXPERIMENTAL_PROTOCOL: anti-His antibody binders, primary screen, artefact control for SMM control protein annotation, biochemical, small-molecule microarray, 635 nm fluorescence (AID 1128);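 note: score merges feature fluorescence with signal-to-noise for each printed compound spot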
# DETAILS: anti-His Alexa647 antibody binding, higher = more signal
composite z-score values by entry

>  <LINE_NOTATION>
COc1ccc(CCNC(=O)[C@@]2(Sc3ccc(C)cc3)CC(=O)N(C(C)C)[C@@H]2c2ccc(CO)cc2)cc1

>  <composite z-score>
0.8

$$$$
>  <LINE_NOTATION>
COCCCNC(=O)[C@@]1(Sc2ccc(C)cc2)CC(=O)N(C2CCCCC2)[C@@H]1c1ccc(CO)cc1I

>  <composite z-score>
1.74

$$$$
>  <LINE_NOTATION>
C[N+](C)(C)CCCCCCNC(=O)[C@@H]1C[C@@H]2C(=O)N[C@@H](Cc3ccccc3)C(=O)N2[C@@H]1c1ccc(O)cc1

>  <composite z-score>
2.13

$$$$
>  <LINE_NOTATION>
CCOC(=O)C[C@H]1[C@H](OC(=O)c2ccc(-c3ccccc3)cc2)[C@@H](NC(=O)CC(C)C)c2cc(OCCCO)ccc2N1C(=O)Cc1ccc(OC)cc1

>  <composite z-score>
-0.283

$$$$
>  <LINE_NOTATION>
COCCOC(=O)N1C(=O)[C@@]2(c3cc(C#CCC(C(=O)OC)C(=O)OC)ccc31)[C@H](C(=O)N1CCc3cc(OC)c(OC)cc3C1)[C@H]1C(=O)O[C@H](c3ccccc3)[C@H](c3ccccc3)N1[C@@H]2c1ccc(O)cc1

>  <composite z-score>
1.82

$$$$
>  <LINE_NOTATION>
CCOC(=O)C1=CC[C@@H](c2ccccc2)N(S(=O)(=O)C[Si](C)(C)C)[C@H]1c1ccccc1

>  <composite z-score>
1.07

$$$$
>  <LINE_NOTATION>
COC(=O)[C@@]1(Cc2ccccc2)[C@@H]2[C@@H](CC(=O)[C@H]2CC(=O)C(=O)N(C)C)CN1C(=O)c1ccccc1

>  <composite z-score>
1.33

$$$$

* * *

# EXPERIMENTAL_PROTOCOL: binders of probe aFGF10 on microarray, primary screen, stem cell growth factor project, biochemical, small-molecule microarray, fluorescence 635/667 (AID 1071);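 note: score merges 667 nm spot intensity and signal to noise from triplicate slides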
# DETAILS: higher = more signal
composite z-score values by entry
ATTRIBUTE_MEASURED: composite z-score

>  <COMPOUND>
O=C1OCCC/C=C\[C@H]2OC34C=CCN(Cc5ccccc5)C(=O)[C@H]3N(CCCCCO)C(=O)[C@@H]4C12 (stereo partly specified)

>  <ATTRIBUTE_MEASURED>
composite z-score

>  <NUMERIC_VALUE>
-0.0433

$$$$
>  <COMPOUND>
COCCOC(=O)N1C(=O)[C@@]2(c3cc(C#CC4(O)CCCCCC4)ccc31)[C@H](C(=O)N1CCc3cc(OC)c(OC)cc3C1)[C@H]1C(=O)O[C@H](c3ccccc3)[C@H](c3ccccc3)N1[C@@H]2c1ccc(O)cc1

>  <ATTRIBUTE_MEASURED>
composite z-score

>  <NUMERIC_VALUE>
0.68

$$$$
>  <COMPOUND>
COCCOC(=O)N1C(=O)[C@@]2(c3cc(C#Cc4ccc(OC)cc4)ccc31)[C@H](C(=O)Nc1nc3ccccc3s1)[C@H]1C(=O)O[C@H](c3ccccc3)[C@H](c3ccccc3)N1[C@@H]2c1ccccc1OCCO

>  <ATTRIBUTE_MEASURED>
composite z-score

>  <NUMERIC_VALUE>
0.329

$$$$
>  <COMPOUND>
CC1(C)OC[C@@]23C=C(Br)[C@@H](C[C@H]12)[C@@]1(CO1)C3=O

>  <ATTRIBUTE_MEASURED>
composite z-score

>  <NUMERIC_VALUE>
0.403

$$$$
>  <COMPOUND>
O=C1OCCC=C[C@H]2OC34C=CCN(c5ccc(Cl)cc5)C(=O)[C@H]3N(CCO)C(=O)[C@@H]4C12 (stereo partly specified)

>  <ATTRIBUTE_MEASURED>
composite z-score

>  <NUMERIC_VALUE>
-0.434

$$$$
>  <COMPOUND>
COc1ccc([Si](C)(C)[C@@H]2[C@@H](CC(=O)N(CCO)Cc3ccccc3)O[C@]3(C(=O)N(Cc4ccc(N5CCC5=O)cc4)c4ccccc43)[C@H]2C)cc1

>  <ATTRIBUTE_MEASURED>
composite z-score

>  <NUMERIC_VALUE>
0.0667

$$$$

Value source: PubChem BioAssay
